# Tested on: Plasmodium berghei
# Assay Explanation: Screen against P. berghei liver stage (PbLuc), transformed with Luciferase, at 10uM
# Type: functional, HepG2
# Conditions: tested at 10 uM
Out of some 69,000 compounds screened, about 8,600 (12%) showed an effect of 50% or more. The list comes from a sample in which strong results are over-represented; it also holds close analogues and randomly drawn compounds.
Measure Name: INHIBITION (%)
Response body: numeric value in %, unit text excluded.

Input: // query INHIBITION value for entry "Cc1nc(C(=O)N2CC[C@@]3(C[C@@H](NS(C)(=O)=O)CCO3)C2)cs1"
Output: 62.5

Input: Okay, and "Cc1cc(C(F)(F)F)c2c(C3CCN(S(=O)(=O)N(C)C)CC3)noc2n1" ?
Output: 60.8

Input: Repeat with "COc1cccc(CN(C)Cc2c(C)noc2C)c1OC"
Output: -6.61

Input: Entry "Cc1noc(C)c1CN(C)CCC(=O)N1CCc2sccc2C1" please
Output: 0.932

Input: Check CCc1cc(C(F)(F)F)c2c(C3CCCN(C(=O)COC)C3)noc2n1 (configuration not stated) too.
Output: -8.12

Input: Here is the next compound: "CN(C)C(=O)C1CCN(C2CCN(CC3CCC3)CC2)CC1"
Output: 26.5

Input: Same thing, different compound: Cc1nc(C2CCCN2C(=O)CCn2cncn2)no1 (configuration not stated)
Output: -85

Input: Now consider Cc1noc(C)c1CN(C)CC(c1cccs1)N1CCOCC1 (configuration not stated) .
Output: -54.6

Input: Try this compound too: "Cc1noc(C)c1CN(C)Cc1nc(N)c2ccccc2n1"
Output: 20.9

Input: Next compound up: "Cc1noc(C)c1CN(C)Cc1csc(-c2ccc(C(C)C)cc2)n1"
Output: 91.1

Input: Now this one: c1cncc(-c2nnn3c2COCC(CNC2CCOCC2)C3)c1 (configuration not stated)
Output: 33.4

Input: Same lookup for "CCn1ncc2[nH]c(-c3cc(OC)c(OC)cc3OC)nc21" , please.
Output: 26.5

meta.source: ChEMBL document CHEMBL4513216
